These measurements were taken from patent US4038384A.

- System: rumen flora
- protocol text: In vitro rumen fluid test, volatile fatty acid production
- Format: cell-based, steer
- conditions: 1 ppm in rumen fluid, 16 hours, 38° C.
- Text: As discussed hereinabove, efficiency of carbohydrate utilization in ruminants is increased by treatments which stimulate the animal's rumen flora to produce propionate compounds rather than acetate or butyrate compounds. The efficiency of feed use can be monitored by observing the production and concentration of propionate compounds in the rumen, using the following methods: Rumen fluid is obtained from a steer with a surgically-installed fistula opening into the rumen. […]
recorded metric: Ratio of Treated to Control, Molar % butyrate
Answers are plain numbers.

Worked examples, 5 compounds total:
CCCCC(=O)OC1C=CC2(OC(C(CC)C(=O)C(C)C(O)C(C)C3OC(C(CC)C(=O)O)C(C)CC3C)C(C)CC2C)OC12CCC(C)(C1CCC(O)(CC)C(C)O1)O2 (stereo not drawn); 0.79
CCCC(=O)OC1C=CC2(OC(C(CC)C(=O)C(C)C(O)C(C)C3OC(C(CC)C(=O)O)C(C)CC3C)C(C)CC2C)OC12CCC(C)(C1CCC(O)(CC)C(C)O1)O2 (stereo not drawn); 0.81
CCC(C(=O)O)C1OC(C(C)C(O)C(C)C(=O)C(CC)C2OC3(C=CC(OC(C)=O)C4(CCC(C)(C5CCC(O)(CC)C(C)O5)O4)O3)C(C)CC2C)C(C)CC1C (stereo not drawn) [A-28086 factor A acetyl ester derivative, A-28086 factor A acetyl ester]; 0.76
CCC(=O)OC1C=CC2(OC(C(CC)C(=O)C(C)C(O)C(C)C3OC(C(CC)C(=O)O)C(C)CC3C)C(C)CC2C)OC12CCC(C)(C1CCC(O)(CC)C(C)O1)O2 (stereo not drawn); 0.68
CCC(C(=O)O)C1OC(C(C)C(O)C(C)C(=O)C(CC)C2OC3(C=CC(O)C4(CCC(C)(C5CCC(O)(CC)C(C)O5)O4)O3)C(C)CC2C)C(C)CC1C (stereo not drawn) [A-28086 factor A]; 0.87

Attention now turns to another entry.
IN: Name the recorded Ratio of Treated to Control, Molar % butyrate for CCCCCC(=O)OC1C=CC2(OC(C(CC)C(=O)C(C)C(O)C(C)C3OC(C(CC)C(=O)O)C(C)CC3C)C(C)CC2C)OC12CCC(C)(C1CCC(O)(CC)C(C)O1)O2 (stereo not drawn) .
OUT: 0.97
